System: SK-MEL-28 melanoma
Assay: NCI-60 one-dose screen, 48 h (100 = growth as untreated, 0 = no growth, -100 = all killed)
Settings: 10 µM unless noted
About 83,000 compounds went through this panel and 20% of them were active in at least one assay; those are over-represented in the sample as a whole.
Reported growth values follow for various compounds
Only the number, expressed in %, is required.

Past entries and their recorded results:
>>> measurement("Oc1ccc(-c2nc3ccc4[nH]ncc4c3c3c2CCCC3)c2cccnc12")
13.3
>>> measurement("O=C(Cc1ccc(F)c(Cl)c1)Nc1cc(C2(C(F)(F)F)CC2)nn1Cc1ccccc1")
98

Would you kindly look at the next entry?
Problem: Which measured growth value corresponds to "COc1ccc(-c2[nH]ncc2-c2cc3c(c(OC)c2)OCC(=O)N3)cc1" ?
Result: 57.6

###

Test system: A549/ATCC NSCLC
Assay: NCI-60 one-dose screen, 48 h (100 = growth as untreated, 0 = no growth, -100 = all killed)
Settings: 10 µM unless noted
Procedure: Growth inhibition of the A549/ATCC human Non-Small Cell Lung tumor cell line is measured as a screen for anti-cancer activity. Cells are grown in 96 well plates and exposed to the test compound for 48 hours. Compounds are tested at a single concentration, which is 10^-5 M for most compounds. The reported endpoint is percent growth (GI% or GIPRCNT), where numbers from 0 - 100% represent growth inhibition, and numbers from -100% - 0 represent cell death. […]
Compounds without any hit were thinned out: in the full panel of roughly 83,000, 20% have a hit.
Measured attribute: growth (%)
Only the number, expressed in %, is required.

Past entries and their recorded results:
>>> measurement("O=C(COc1ccc(/C=C2\\Cc3ccc(Cl)cc3C2=O)cc1)Nc1nc2ccccc2s1")
99.5
>>> measurement("CNCCCNc1nc2ccccc2c2c(=O)c3cc(F)ccc3sc12")
37.9
>>> measurement("Cc1nc2ccccc2c(/C=C/c2ccccc2)c1C(=O)/C=C/c1ccc(C(F)(F)F)cc1")
75.3
>>> measurement("CC(=O)N1CCN(c2ccc(OCC3CO[C@](Cn4ccnc4)(c4ccc(Cl)cc4Cl)O3)cc2)CC1 (some centres undefined)")
85.2
>>> measurement("c1cc(-c2nnc(SSc3ncnc4nc[nH]c34)o2)ccn1")
92.5
>>> measurement("COc1ccc(C(=O)N=Nc2c(O)n(C)c3ccccc23)cc1")
105

Problem: Give A549/ATCC NSCLC growth for "COc1ccc(OC)c(/C=C/C(=O)N/N=C/c2ccccc2)c1"
Result: 48.4

Problem: Give A549/ATCC NSCLC growth for "CCCCn1c(-c2ccc(-c3nc(-c4ccc(Cl)cc4)no3)cc2)nc(-c2ccccc2)c1-c1ccccc1"
Result: 36.3

Problem: Give A549/ATCC NSCLC growth for "O=C(Nc1ccc(-c2nc(-c3cccc(OCCN4CCOCC4)c3)c(-c3ccnc(Br)c3)[nH]2)cc1)c1ccccc1"
Result: 21.9

Problem: Give A549/ATCC NSCLC growth for "CCCCCCn1c(-c2ccc(C(=O)O/N=C(\N)c3ccc4c(c3)OCO4)cc2)nc(-c2ccccc2)c1-c1ccccc1"
Result: -25.3

Problem: Give A549/ATCC NSCLC growth for "CN1CCN(c2ccc(-c3cc4c(Nc5ccc(F)c(Cl)c5)ncnn4c3)cc2)CC1"
Result: 71.4

Problem: Give A549/ATCC NSCLC growth for "CSc1ccc2c(c1)c(CCN)c(C)n2Cc1ccc(Cl)c(Cl)c1"
Result: -77.9

Problem: Give A549/ATCC NSCLC growth for "Cc1nc2cnc(N)c(C#Cc3cncc(C(=O)Nc4ccc(CN5CCN(C)CC5)c(C(F)(F)F)c4)c3)c2nc1C"
Result: 2.19

Problem: Give A549/ATCC NSCLC growth for CC1Cc2ccccc2N1NC(=O)c1ccc(Cl)c(S(N)(=O)=O)c1 (centres undefined)
Result: 107

###

System: SF-268 CNS
Test: NCI-60 one-dose screen, 48 h
Conditions: 10 µM unless noted
This is part of a sample that, as a whole, favours compounds with a hit. Of some 83,000 tested, about 20% had one in any assay. The source made the active and inactive calls. Rule for the calls: active = growth percent below 10; inactive = the rest.
Answer with one of the outcomes active, inactive

Illustrative cases are given below, each with its answer.
>>> class_name("CCc1ccc(Oc2c(-c3ccc(OCCc4cccc(C(F)(F)F)c4)cc3O)n[nH]c2C(F)(F)F)cc1")
"inactive"
>>> class_name("COC(=O)[C@H](C)NC(=O)NC(=O)NC(=O)CI")
"inactive"

Problem: Assay result, entry "COC(=O)CCC/C=C\C[C@H]1C=CC(=O)/C1=C/C[C@@H](O)CCc1cccc(C(F)(F)F)c1" — outcome?
Result: active

###

Test system: UACC-62 melanoma
Assay: NCI-60 one-dose screen, 48 h (100 = growth as untreated, 0 = no growth, -100 = all killed)
Settings: 10 µM unless noted
About 83,000 compounds went through this panel and 20% of them were active in at least one assay; those are over-represented in the sample as a whole.
Measured attribute: growth (%)
Only the number, expressed in %, is required.

>>> measurement("O=C(Nc1c2ccccc2nc2ccccc12)c1ccccc1CN1C(=O)c2ccccc2C1=O")
58.8
>>> measurement("O=C(CCOCCNC(=O)COc1ccc2c(c1)OCC(c1ccc(F)cc1)C2=O)NCCCC(O)(P(=O)(O)O)P(=O)(O)O (centres undefined)")
105
>>> measurement("C[C@H](C(=O)Nc1ccc(S(N)(=O)=O)cc1)S(=O)(=O)c1ccccc1")
102

Problem: Which measured growth value corresponds to "COc1ccc(NC(=O)n2nc(/C=C\c3ccc(O)c(OC)c3)cc2/C=C\c2ccc(O)c(OC)c2)cc1" ?
Result: 25.5

Problem: Which measured growth value corresponds to "CCOc1c(B(O)O)cccc1-c1nc2ccc3[nH]ncc3c2c2c1CCCC2" ?
Result: 88.1

Problem: Which measured growth value corresponds to "CCCCCCn1c(-c2ccc(C(=O)O/N=C(\N)c3ccc(OC)cc3)cc2)nc(-c2ccccc2)c1-c1ccccc1" ?
Result: 18.1

Problem: Which measured growth value corresponds to "COc1ccc2nc(NCCCNCCO)c3sc4ccc(F)cc4c(=O)c3c2c1" ?
Result: 65.7

Problem: Which measured growth value corresponds to "COc1cccc(-c2nn(-c3ccccc3)cc2-c2ccnc(N3CCOCC3)c2)c1" ?
Result: 71.8

Problem: Which measured growth value corresponds to COc1cc(C2CC(c3ccc(SC)cc3)=NN2C(C)=O)cc(OC)c1OC (centres undefined) ?
Result: 57.9

###

System: MOLT-4 leukemia
Test: NCI-60 one-dose screen, 48 h
Conditions: 10 µM unless noted
This is part of a sample that, as a whole, favours compounds with a hit. Of some 83,000 tested, about 20% had one in any assay. The source made the active and inactive calls. Rule for the calls: active = growth percent below 10; inactive = the rest.
Answer with one of the outcomes True = active, False = inactive

>>> class_name("Cc1cc(N2CCCC2)nc(N(CCCNc2ccnc3cc(Cl)ccc23)Cc2ccccn2)n1")
"False"
>>> class_name("COc1nc2ccc(C)cc2cc1-c1nc2c(cnn2-c2ccc(Br)cc2)c(=O)[nH]1")
"False"

Problem: Assay result, entry "CN1CCN(c2ccc(-c3cnc4c(-c5csc6ccccc56)cnn4c3)cc2)CC1" — outcome?
Result: False

Problem: Assay result, entry Cc1ccc(C(CC(=O)O)c2c(C)[nH][nH]c2=O)cc1 (stereo unspecified) — outcome?
Result: False

Problem: Assay result, entry CC(=O)CC(c1ccccc1)c1c(C)[nH]c2ccccc12 (stereo unspecified) — outcome?
Result: False

Problem: Assay result, entry "COc1ccc(-c2[nH]ncc2-c2cc3c(c(OC)c2)OCC(=O)N3)cc1" — outcome?
Result: False

Problem: Assay result, entry "CCOC(=O)c1nc(Nc2ccc(C(C)=O)cc2)sc1C" — outcome?
Result: False

###

Test system: SN12C renal
Test: NCI-60 one-dose screen, 48 h (100 = growth as untreated, 0 = no growth, -100 = all killed)
Conditions: 10 µM unless noted
This is part of a sample that, as a whole, favours compounds with a hit. Of some 83,000 tested, about 20% had one in any assay.
Label rule, in plain words: growth of 80% and up is 1.0, under 80% is 0.0.

Illustrative cases are given below, each with its answer.
>>> class_name("CN(C)CCNc1nc2ccccc2c2c(=O)c3cc(F)ccc3sc12")
0.0
>>> class_name("Oc1ccc(CCl)c2cccnc12")
0.0

Problem: Hi, just wondering whether COc1ccc(S(=O)(=O)n2cc(C3OC(c4cc(OC)c(OC)c(OC)c4)=NN3C(C)=O)c3ccccc32)cc1OC (centres undefined) shows growth of 80% or higher.
Result: 1.0

Problem: Hi, just wondering whether OC(COc1ccccc1)CN1CCN(c2ccc(Cl)cc2)CC1 (centres undefined) shows growth of 80% or higher.
Result: 1.0

Problem: Hi, just wondering whether "O=c1cc(SCc2ccccc2)nc[nH]1" shows growth of 80% or higher.
Result: 1.0

Problem: Hi, just wondering whether "O=c1[nH]c2c(ccc3cnccc32)c2c1CCC2" shows growth of 80% or higher.
Result: 0.0

Problem: Hi, just wondering whether "CCCCN(C)N=Nc1ccc(C(N)=O)cc1" shows growth of 80% or higher.
Result: 1.0

Problem: Hi, just wondering whether COc1ccc(C2C(N)=NNC2c2cccc(O)c2)cc1 (centres undefined) shows growth of 80% or higher.
Result: 1.0

Problem: Hi, just wondering whether "CCOC(=O)Cn1c(=O)c2c(c3ccccc3n2C)n2nnc(-c3ccccc3)c12" shows growth of 80% or higher.
Result: 1.0

Problem: Hi, just wondering whether "COc1ccc(-n2c(N)c(-c3nc4ccccc4[nH]3)cc(C#N)c2=O)cc1" shows growth of 80% or higher.
Result: 1.0

Problem: Hi, just wondering whether "CCOC(=O)c1cn2ncnc(Oc3ccc(NC(=O)NCCN(C)C)c(Cl)c3)c2c1C" shows growth of 80% or higher.
Result: 0.0

Problem: Hi, just wondering whether "O=c1c2cc(F)ccc2sc2c(NCCCNCCO)nc3ccc(F)cc3c12" shows growth of 80% or higher.
Result: 0.0

Problem: Hi, just wondering whether "Cc1ccc(S(=O)(=O)N/N=C/C2(c3ccccc3)CC2)cc1" shows growth of 80% or higher.
Result: 1.0

Problem: Hi, just wondering whether "O=c1c2cc(F)cc(Cl)c2sc2c(NCCCNCCO)nc3ccccc3c12" shows growth of 80% or higher.
Result: 1.0

Problem: Hi, just wondering whether "COc1ccc(/C=N/Nc2cc(=O)[nH]c3ccc(C)cc23)cc1" shows growth of 80% or higher.
Result: 1.0

Problem: Hi, just wondering whether "NCCNc1nc2ccccc2c2c(=O)c3cccc(F)c3sc12" shows growth of 80% or higher.
Result: 0.0
